Listing of recorded yeast fitness by entry.
B1: tRNA (parent)
chain: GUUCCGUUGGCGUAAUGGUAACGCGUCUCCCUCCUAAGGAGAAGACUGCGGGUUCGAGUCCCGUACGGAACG

Variants of: B1
Assay: yeast fitness relative to wild type (ratio to wild type); higher = fitter; tRNA-Arg(CCU), competitive growth, 37 C, YPD
Variants at the floor of the assay were thinned out.

Here are 4 variants together with their reported answers.
Input line: State its yeast fitness: U8A U28A C66U
Output line: ≤ 0.5

Input line: Provide only the value of recorded yeast fitness for A14U C30A A65C
Output line: ≤ 0.5

Input line: For the variant G38C G51A A57U , report yeast fitness.
Output line: ≤ 0.5

Input line: Fill in yeast fitness for record C4G G9C G41A U53C C55U U59A A70U
Output line: ≤ 0.5

New cases:
Input line: Kindly indicate its recorded yeast fitness. Item: A45C G48C G50A U53C C66A
Output line: ≤ 0.5

Input line: Return yeast fitness (reported value) for this variant: U3A A21G A45U G67C
Output line: ≤ 0.5
